Test: SPR binding of NVA1309 to immobilized P4-derived peptides, RU400 as % of peptide P4
Conditions: NVA1309 0.5 mM; P4=100%; Example 7

| POLYMER SEQUENCE | DISPLAY UNIT | % BINDING (RU400) 0.5 mM |
| --- | --- | --- |
| IKAKGGGC (Peptide P15, P4 analogue containing only the amino-terminal part of P4 + GGGC anchor) | % | 19 |
| IKAALEETITQAGGGC (Peptide P14, P4 analogue with Lysine in position 4 (K) substituted by Alanine (A) + GGGC anchor) [P4 analogue, K4 A-substituted + GGGC anchor] | % | 0 |
| IKAKLEETITQAGGGC (Peptide P4, carboxy-terminal VGGC_a2 region (II) + GGGC anchor) [carboxy-terminal VGGC_α2 region (II) + GGGC anchor, positive control] | % | 100 |
| IAAKLEETITQAGGGC (Peptide P13, P4 analogue with Lysine in position 2 (K) substituted by Alanine (A) + GGGC anchor) [P4 analogue, K2 A-substituted + GGGC anchor] | % | 133 |
